Quick reference for pIC50 among some compounds
# target_under_test: muscarinic receptors
# protocol_details: Radio ligand binding: displacement of the muscarinic agonist 3H-Oxotremorine-M (3H-OXO-M)
# Parameters: species or system rat (Hooded Lister)
# recorded_conditions: 2 nM 3H-OXO-M, rat cerebral cortex membranes, 2 mM magnesium chloride, 37° C., 30 min
Structures can show the parent of a compound that is named as a salt.
Just the number, please; pIC50 means minus log10 of the concentration in mol/L.

Recorded results for 4 compounds are shown here.
>>> df
                                   compound     target_under_test  measured_result
0  CON=C(F)C1=CC2CCN(C1)C2 (racemic) [Compound E3, oxalate salt]  muscarinic receptors             7.59
1  CON=C(C)C1=CC2CCN(C1)C2 (racemic) [Compound E5, hydrochloride salt]  muscarinic receptors             6.76
2  CON=C(Cl)C1=CC2CCN(C1)C2 (racemic) [Compound E2, oxalate salt]  muscarinic receptors             7.00
3  CON=C(C#N)C1=CC2CCN(C1)C2 (racemic) [Compound E6, oxalate salt]  muscarinic receptors             7.68

Recorded pIC50 (compound CON=CC1=CC2CCN(C1)C2 (mixture of isomers) [Compound E4, hydrochloride salt] ): 7.15

* * *

# target_under_test: muscarinic receptors
# Assay type: binding, rat (Hooded Lister)
# recorded_conditions: 0.27 nM 3H-QNB, rat cerebral cortex membranes, 37° C., 30 min
Where a name gives a salt, the structure may show the parent alone.
Doc: threshold 1000 nM (exclusive). Items with IC50 beneath it return met; others return not met.

>>> print(df.to_string())
                                   molecule  class_assignment
0  CON=CC1=CC2CCN(C1)C2 (mixture of isomers) [Compound E4, hydrochloride salt]           not met
1  CON=C(C#N)C1=CC2CCN(C1)C2 (racemic) [Compound E6, oxalate salt]               met
2  CON=C(C)C1=CC2CCN(C1)C2 (racemic) [Compound E5, hydrochloride salt]           not met
3  CON=C(F)C1=CC2CCN(C1)C2 (racemic) [Compound E3, oxalate salt]               met

Asked: # TODO verify IC50 < 1000 nM strictly for this molecule: CON=C(Cl)C1=CC2CCN(C1)C2 (racemic) [Compound E2, oxalate salt]
Given back: not met
